Values from patent US20240218054A1

Kd: recorded values
# system: T1, recombinant YFV E protein (soluble E, sE; YFV Asibi strain) (Yellow fever virus, Asibi strain, UniProt Q6DV88 286-678)
# T1 construct: also called YFV E antigen; YFV E monomer
# T1 sequence (Q6DV88 286-678): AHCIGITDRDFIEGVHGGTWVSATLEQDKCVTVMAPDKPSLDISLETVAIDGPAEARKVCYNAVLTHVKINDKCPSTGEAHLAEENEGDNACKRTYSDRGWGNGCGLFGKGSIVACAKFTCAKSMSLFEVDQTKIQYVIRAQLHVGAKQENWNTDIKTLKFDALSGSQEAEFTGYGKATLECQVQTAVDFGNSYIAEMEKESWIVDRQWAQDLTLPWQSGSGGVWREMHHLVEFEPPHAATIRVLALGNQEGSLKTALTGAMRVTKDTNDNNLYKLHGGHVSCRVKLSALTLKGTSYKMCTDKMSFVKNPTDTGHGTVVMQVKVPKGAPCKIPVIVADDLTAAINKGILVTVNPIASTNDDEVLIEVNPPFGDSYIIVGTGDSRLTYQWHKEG
# experiment: BLI monovalent (IgG on tip)

Answered cases to consult:
>  <binder>
ADI-46724 (antibody, V domains shown, full-length IgG; also called Antibody Number 133) VH: QVQLQESGPGLVEPSGTLSLTCVVTGDSISSRSWWSWVRQPPGKGLEWIGEIYHSGTTTYSPSLKSRVIISLDKSENHFSLKMTSVTAADTAVYYCARVIRDLRDYYDGSGYGPDAFDIWGQGTTVTVSS VL: QPVLTQPPSVSAAPGQKVTISCSGSSSNIGSNFVSWYQQFPGTAPKLLIYDDNKRPSGIPDRFSGSKSGTSATLGITGLQTGDEADYYCETWDSRLSVVFGGGTKLTVL

>  <Kd>
> 100 nM

$$$$
>  <binder>
ADI-46737 (antibody, V domains shown, full-length IgG; also called Antibody Number 140) VH: QVQLVQSGGGVVQPGRSLRLSCAASGFTFSSYAMHWVRQAPGKGLEWVAVISYDGSNKYYADSVKGRFTISRDNSKNTLYLQMNSLRAEDTAVYYCARDGAGDYIWGSYRHKGLHYYYGMDVWGQGTTVTVSS VL: DIQLTQSPSSLSASVGDRVTITCRASQGIRNDLGWYQQKPGKAPKRLIYAASSLQSGVPSRFSGSGSGTEFTLTISSLQPEDFATYYCLQHNSYPLTFGGGTKVEIK

>  <Kd>
> 100 nM

$$$$
>  <binder>
ADI-49137 (antibody, V domains shown, full-length IgG; also called Antibody Number 126) VH: EVQLVESGGGLVQPGGSLRLSCAASGFIFSDHYMAWVRQAPGKGLEWVGHVGNKANTYTTEYAASVKGRFTISRDDSKKSLYLQMNRLKSEDTAVYYCARVFSYYLDYWGQGTPVTVSS VL: EIVLTQSPGTLALSPGERATLSCRASQSVSSYLAWYQQKPGQAPRLLIYDSSNRATGIPARFSGSGSGTDFTLTISSLEPEDFAVYYCQQPGNWPPAFTFGGGTKLEIK

>  <Kd>
0.854 nM

$$$$
>  <binder>
ADI-42809 (antibody, V domains shown, full-length IgG; also called Antibody Number 34) VH: QVQLVESGPGLVKPSGTLSLTCAVSGDSISSTNWWSWVRQPPGKGLEYIGEIFHSGSTNYNPFLKSRVTISVDKSKNHFSLKLSSVTAADTAVYYCARGPLKSYWYFDLWGRGTLVTVSS VL: QSVLTQPPSVSAAPGQKVTISCSGSSSNIGNNYVSWYQQLPGTAPKLLIYDNNKRPSGIPDRFSGSKSGTSATLGITGLQTGDEADYYCGTWDTSLSAGRVFGGGTKLTVL

>  <Kd>
3.78 nM

$$$$

Entry ADI-50535 (antibody, V domains shown, full-length IgG; also called Antibody Number 78) VH: QVQLVQSGAEVKKPGASVKVSCKASGYTFTSYGISWVRQAPGQGLEWMGWISAYNGNTNYAQKLQGRVTMTTDTSTSTAYMELRSLRSDDTAVYYCARRPYYYGSRRPAGHMDVWGQGTTVTVSS VL: NFMLTQPHSVSESPGKTVTISCTRSSGSIASNYVQWYQQRPGSSPTTVIYEDNQRPSGVPDRFSGSIDSSSNSASLTISGLKTEDEADYYCQSYDSSNVVFGGGTKVTVL , Kd reported as > 100 nM
